# test-protocol: Antagonist activity at P2Y12 receptor assessed as platelet aggregation by washed platelet assay
pIC50: −log10 of the molar value.
Think of 6 as a floor: if pIC50 stands on it or above, it is Fulfilled; beneath it, Not fulfilled.

Please review the entries below; each comes with its answer.
query: pIC50 >= 6 for `CCNC(=O)Nc1ncnc2c1ncn2[C@@H]1O[C@H](CNC(=O)c2ccco2)[C@H]2O[C@H](/C=C/c3ccccc3)O[C@H]21` ?
result: Not fulfilled

query: How about this compound: `CCNC(=O)Nc1ncnc2c1ncn2[C@@H]1O[C@H](CNC(=O)CO)[C@H]2O[C@H](/C=C/c3ccccc3)O[C@H]21`
result: Not fulfilled

query: Can you handle `CCNC(=O)Nc1ncnc2c1ncn2[C@@H]1O[C@H](COCC(=O)O)[C@H]2O[C@H](/C=C/c3ccccc3)O[C@H]21` next?
result: Fulfilled

query: What about this compound? CCNC(=O)Nc1ncnc2c1ncn2[C@@H]1O[C@H](CNCC2CC2C(=O)OCC)[C@H]2O[C@H](/C=C/c3ccccc3)O[C@H]21 (some centres not stated)
result: Not fulfilled

query: Field entry: `CCNC(=O)Nc1ncnc2c1ncn2[C@@H]1O[C@H](CCC(=O)O)[C@H]2O[C@H](/C=C/c3ccccc3)O[C@H]21`
result: Fulfilled

Next:
query: Does the reported pIC50 for `CCNC(=O)Nc1ncnc2c1ncn2[C@@H]1O[C@H](CSCC(=O)O)[C@H]2O[C@H](/C=C/c3ccccc3)O[C@H]21` fall at or above the 6 mark?
result: Not fulfilled

----------
# test-protocol: Antagonist activity at P2Y12 receptor assessed as platelet aggregation by washed platelet assay
reported-property: pIC50
Give bare numbers, as −log10 of the molar value.

Completed entries (count: 3):
query: May I ask what pIC50 has been recorded for `CCNC(=O)Nc1ncnc2c1ncn2[C@@H]1O[C@H](CO)[C@H]2O[C@H](/C=C/c3ccccc3)O[C@H]21` ?
result: 5.90

query: Note, next up: CCNC(=O)Nc1ncnc2c1ncn2[C@@H]1O[C@H](CN(CC2CC2C(=O)O)CC2CC2C(=O)O)[C@H]2O[C@H](/C=C/c3ccccc3)O[C@H]21 (some centres undefined)
result: 6.24

query: Check CCNC(=O)Nc1ncnc2c1ncn2[C@@H]1O[C@H](CNCC2CC2C(=O)O)[C@H]2O[C@H](/C=C/c3ccccc3)O[C@H]21 (some centres undefined) too.
result: 5.57

# batch size: 6; output pIC50 per entry
1. CCNC(=O)Nc1ncnc2c1ncn2[C@@H]1O[C@H](COCc2ccccc2C(=O)O)[C@H]2O[C@H](/C=C/c3ccccc3)O[C@H]21
2. CCNC(=O)Nc1ncnc2c1ncn2[C@@H]1O[C@H](CS(=O)(=O)CC(C)O)[C@H]2O[C@H](/C=C/c3ccccc3)O[C@H]21 (some centres undefined)
3. CCNC(=O)Nc1ncnc2c1ncn2[C@@H]1O[C@H](CNCC(=O)O)[C@H]2O[C@H](/C=C/c3ccccc3)O[C@H]21
4. CCNC(=O)Nc1ncnc2c1ncn2[C@@H]1O[C@H](COCc2cccc(C(=O)O)c2)[C@H]2O[C@H](/C=C/c3ccccc3)O[C@H]21
5. CCNC(=O)Nc1ncnc2c1ncn2[C@@H]1O[C@H](C(=O)O)[C@H]2O[C@H](/C=C/c3ccccc3)O[C@H]21
6. CCNC(=O)Nc1ncnc2c1ncn2[C@@H]1O[C@H](CN)[C@H]2O[C@H](/C=C/c3ccccc3)O[C@H]21

result:
1: 7.40; 2: 5.60; 3: 6.29; 4: 6.21; 5: 6.70; 6: 5.33
